Hello, the source for this data is patent US8008290B2, in case you need it.

- Target System: Human recombinant cathepsin K (Homo sapiens, UniProt P43235)
- Sequence (P43235 115-329): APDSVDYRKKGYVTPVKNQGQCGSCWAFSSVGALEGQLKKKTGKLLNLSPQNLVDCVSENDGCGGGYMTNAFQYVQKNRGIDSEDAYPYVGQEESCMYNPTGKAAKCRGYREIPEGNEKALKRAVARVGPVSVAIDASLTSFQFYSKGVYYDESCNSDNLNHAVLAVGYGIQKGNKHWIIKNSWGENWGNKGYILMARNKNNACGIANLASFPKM
- Assay Remarks: In vitro cathepsin Ki inhibition measurement, cathepsin K
- Format: biochemical
- Condition Summary: human cathepsin K, steady-state, competitive model; read-out: In vitro Ki (nM) vs Cath K
Ki values by entry

- Compound: "O=C(N[C@H](C(=O)N1C[C@H](Cl)[C@H]2OCC(=O)[C@H]21)C1CCCCC1)c1cccc(-n2cnnn2)c1 [EXAMPLE 2]"
  Ki: "27 nM"
- Compound: "O=C(N[C@@H](CC1CCCCC1)C(=O)N1CC[C@H]2OCC(=O)[C@H]21)c1ccccc1 [Prior art compound 38, reference compound]"
  Ki: "> 4000 nM"
- Compound: "O=C(N[C@H](C(=O)N1C[C@H](F)[C@H]2OCC(=O)[C@H]21)C1CCCCC1)c1ccccc1 [Compound 2]"
  Ki: "95 nM"
- Compound: "O=C(N[C@H](C(=O)N1C[C@H](Cl)[C@H]2OCC(=O)[C@H]21)C1CCCCC1)c1cccc(-n2ccnc2)c1 [EXAMPLE 3]"
  Ki: "23 nM"
